Biological target: Mitogen-activated protein kinase kinase kinase 5 (Homo sapiens)
Sequence (whole entry): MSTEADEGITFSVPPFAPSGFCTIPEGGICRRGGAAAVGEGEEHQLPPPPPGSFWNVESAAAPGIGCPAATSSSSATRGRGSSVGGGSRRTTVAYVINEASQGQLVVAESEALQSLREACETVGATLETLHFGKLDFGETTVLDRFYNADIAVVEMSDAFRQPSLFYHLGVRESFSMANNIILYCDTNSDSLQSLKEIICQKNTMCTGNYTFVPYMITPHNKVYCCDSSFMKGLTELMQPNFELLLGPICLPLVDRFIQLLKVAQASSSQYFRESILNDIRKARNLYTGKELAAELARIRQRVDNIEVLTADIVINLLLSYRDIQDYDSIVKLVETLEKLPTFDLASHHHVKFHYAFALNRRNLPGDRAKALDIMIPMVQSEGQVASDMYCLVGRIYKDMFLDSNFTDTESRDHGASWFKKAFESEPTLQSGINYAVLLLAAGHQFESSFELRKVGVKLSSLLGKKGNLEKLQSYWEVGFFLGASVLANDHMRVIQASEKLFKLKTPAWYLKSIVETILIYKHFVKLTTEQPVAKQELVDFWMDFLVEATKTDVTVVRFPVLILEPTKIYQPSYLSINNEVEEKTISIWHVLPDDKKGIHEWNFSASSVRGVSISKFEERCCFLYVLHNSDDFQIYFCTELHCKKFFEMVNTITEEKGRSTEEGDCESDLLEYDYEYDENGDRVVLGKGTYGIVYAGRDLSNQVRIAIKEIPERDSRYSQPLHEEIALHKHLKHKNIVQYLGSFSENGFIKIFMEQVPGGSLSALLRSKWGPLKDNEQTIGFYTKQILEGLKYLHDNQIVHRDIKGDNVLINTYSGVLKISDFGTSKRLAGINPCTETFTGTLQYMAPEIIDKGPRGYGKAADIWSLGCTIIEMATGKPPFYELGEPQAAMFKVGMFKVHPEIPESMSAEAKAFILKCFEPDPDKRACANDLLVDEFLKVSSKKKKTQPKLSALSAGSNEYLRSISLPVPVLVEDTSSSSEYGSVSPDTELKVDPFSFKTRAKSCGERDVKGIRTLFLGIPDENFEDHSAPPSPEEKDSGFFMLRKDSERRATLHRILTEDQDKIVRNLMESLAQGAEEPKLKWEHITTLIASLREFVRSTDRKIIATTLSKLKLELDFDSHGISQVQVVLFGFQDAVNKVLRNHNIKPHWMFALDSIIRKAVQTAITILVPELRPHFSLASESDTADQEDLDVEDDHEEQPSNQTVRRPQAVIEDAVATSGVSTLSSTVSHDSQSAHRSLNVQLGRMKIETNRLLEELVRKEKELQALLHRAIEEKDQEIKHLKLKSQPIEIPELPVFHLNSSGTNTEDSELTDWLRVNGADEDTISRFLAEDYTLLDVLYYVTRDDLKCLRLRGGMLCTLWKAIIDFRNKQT
Conditions: at 10 µM
property name: residual activity
The answer consists of two parts: a number and, after it, its unit.

Below are worked cases with known answers.
> print(dat)
                                test.smiles  measured.value
1        O=C1Nc2ccc3ncsc3c2/C1=C/c1c[nH]cn1              7%
2  N/C(=N\[N+](=O)[O-])N/N=C\c1ccc(-c2cccc([N+](=O)[O-])c2)o1             86%
3  O=C1NC(=O)c2c1c1c3ccccc3n3c1c1c2c2ccccc2n1C1CCC3O1             60%

# input for lookup
Identify measured residual activity associated with O=C1c2ccccc2-c2nc3nnnn3nc21
143%

----------
# Lookup of reported residual activity keyed by entry
Target: Casein kinase I isoform delta (Homo sapiens) (UniProt P48730)
Sequence (P48730 whole entry, looked up, canonical isoform): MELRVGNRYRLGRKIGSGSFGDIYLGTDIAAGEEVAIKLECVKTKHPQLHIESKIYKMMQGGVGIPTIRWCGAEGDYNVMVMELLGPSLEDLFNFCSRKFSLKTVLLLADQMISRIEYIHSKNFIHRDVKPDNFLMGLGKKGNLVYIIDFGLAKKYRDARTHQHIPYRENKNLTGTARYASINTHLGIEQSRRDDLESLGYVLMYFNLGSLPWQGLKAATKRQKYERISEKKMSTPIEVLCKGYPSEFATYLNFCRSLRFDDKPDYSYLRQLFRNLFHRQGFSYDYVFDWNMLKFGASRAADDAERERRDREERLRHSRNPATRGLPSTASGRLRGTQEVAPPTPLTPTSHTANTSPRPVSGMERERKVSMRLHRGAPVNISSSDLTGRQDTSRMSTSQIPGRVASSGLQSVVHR
Settings: at 10 µM
Description: Millipore: Percentage of residual kinase activity of CSNK1D at 10uM relative to control. Control inhibitor: Jnk Inhibitor II at 100.0uM. Buffer: 8 mM MOPS pH 7.0, 0.2 mM EDTA
Kindly answer with a numeric value in %, unit omitted.

Below are worked cases with known answers.
> print(dat)
                                test.smiles                             system.tested  measured.value
1        O=C1Nc2ccc3ncsc3c2/C1=C/c1c[nH]cn1  Casein kinase I isoform delta (Homo sapiens) (UniProt P48730)               4
2          O=[N+]([O-])/C=C/c1ccc2c(c1)OCO2  Casein kinase I isoform delta (Homo sapiens) (UniProt P48730)             113
3  COC(=O)[C@@]1(O)C[C@H]2O[C@]1(C)n1c3ccccc3c3c4c(c5c6ccccc6n2c5c31)C(=O)NC4  Casein kinase I isoform delta (Homo sapiens) (UniProt P48730)              37
4        CC(C)(C)c1cc(C=C(C#N)C#N)cc(Br)c1O  Casein kinase I isoform delta (Homo sapiens) (UniProt P48730)              48
5  COc1cc(OC)c(/C=C2\C(=O)Nc3ccccc32)c(OC)c1  Casein kinase I isoform delta (Homo sapiens) (UniProt P48730)               6

Identify measured residual activity associated with CCc1nc(-c2ccc(OC)cc2)[nH]c1-c1ccncc1
37

Identify measured residual activity associated with N/C(=N\[N+](=O)[O-])N/N=C\c1ccc(-c2cccc([N+](=O)[O-])c2)o1
76

----------
Molecular target: Serine/threonine-protein kinase N2 (Homo sapiens) (UniProt Q16513)
Sequence (Q16513 whole entry, looked up): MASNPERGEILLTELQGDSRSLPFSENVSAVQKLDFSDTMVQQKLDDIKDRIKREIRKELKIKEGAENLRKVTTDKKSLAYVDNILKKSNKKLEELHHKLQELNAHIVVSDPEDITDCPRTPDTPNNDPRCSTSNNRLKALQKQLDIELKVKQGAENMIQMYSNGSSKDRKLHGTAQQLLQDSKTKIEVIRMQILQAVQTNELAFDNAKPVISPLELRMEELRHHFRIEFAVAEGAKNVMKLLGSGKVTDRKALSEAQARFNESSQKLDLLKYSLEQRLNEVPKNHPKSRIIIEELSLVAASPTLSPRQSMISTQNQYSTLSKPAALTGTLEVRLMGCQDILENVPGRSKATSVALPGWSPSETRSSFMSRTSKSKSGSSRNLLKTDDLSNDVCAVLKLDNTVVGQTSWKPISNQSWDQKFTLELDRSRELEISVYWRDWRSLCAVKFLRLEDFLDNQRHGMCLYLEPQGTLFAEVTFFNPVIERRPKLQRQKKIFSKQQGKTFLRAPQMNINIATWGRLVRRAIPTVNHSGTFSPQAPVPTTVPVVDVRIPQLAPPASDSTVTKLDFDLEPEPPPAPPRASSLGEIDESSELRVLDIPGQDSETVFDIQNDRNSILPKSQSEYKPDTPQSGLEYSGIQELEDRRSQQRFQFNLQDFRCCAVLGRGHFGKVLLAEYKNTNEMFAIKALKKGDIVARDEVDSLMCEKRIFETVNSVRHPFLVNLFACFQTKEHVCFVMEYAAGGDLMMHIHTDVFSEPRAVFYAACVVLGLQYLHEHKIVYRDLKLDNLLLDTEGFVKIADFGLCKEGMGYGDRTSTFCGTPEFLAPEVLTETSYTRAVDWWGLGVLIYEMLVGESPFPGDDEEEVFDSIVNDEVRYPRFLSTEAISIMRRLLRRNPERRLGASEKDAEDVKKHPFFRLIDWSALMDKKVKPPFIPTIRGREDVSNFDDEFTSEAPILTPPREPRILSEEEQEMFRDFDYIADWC
Conditions: at 1 µM
# Lookup of reported residual activity keyed by entry
Kindly answer with a numeric value in %, unit omitted.

Below are worked cases with known answers.
> print(dat)
                                test.smiles  measured.value
1  O=c1[nH]c2ccccc2n1C1CCN(Cc2ccc(-c3nc4cc5[nH]cnc5cc4nc3-c3ccccc3)cc2)CC1             112
2          O=[N+]([O-])/C=C/c1ccc2c(c1)OCO2             102
3      CCc1nc(-c2ccc(OC)cc2)[nH]c1-c1ccncc1             102

Write residual activity of CC(C)(C)c1cc(C=C(C#N)C#N)cc(Br)c1O ; system used: Serine/threonine-protein kinase N2 (Homo sapiens) (UniProt Q16513)
104

Write residual activity of COc1cc(OC)c(/C=C2\C(=O)Nc3ccccc32)c(OC)c1 ; system used: Serine/threonine-protein kinase N2 (Homo sapiens) (UniProt Q16513)
99

----------
Target: TGF-beta receptor type-1 (Homo sapiens) (UniProt P36897)
Sequence (whole entry): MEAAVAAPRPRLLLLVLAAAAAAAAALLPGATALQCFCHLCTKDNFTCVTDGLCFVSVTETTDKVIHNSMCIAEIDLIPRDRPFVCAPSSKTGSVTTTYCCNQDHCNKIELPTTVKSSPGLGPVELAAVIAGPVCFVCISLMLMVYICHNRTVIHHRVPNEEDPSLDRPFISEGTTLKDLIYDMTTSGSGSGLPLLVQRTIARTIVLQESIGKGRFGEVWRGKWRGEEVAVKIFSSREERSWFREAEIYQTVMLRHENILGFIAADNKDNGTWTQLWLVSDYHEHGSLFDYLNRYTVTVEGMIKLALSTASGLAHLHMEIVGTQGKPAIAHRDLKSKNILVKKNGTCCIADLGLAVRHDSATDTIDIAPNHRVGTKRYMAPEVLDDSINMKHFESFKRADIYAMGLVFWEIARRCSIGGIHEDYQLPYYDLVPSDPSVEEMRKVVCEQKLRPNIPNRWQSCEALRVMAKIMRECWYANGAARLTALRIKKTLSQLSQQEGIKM
Details: at 1 µM
Description: Millipore: Percentage of residual kinase activity of TGFBR1 at 1uM relative to control. Control inhibitor: Phosphoric acid* at 0.3uM. Buffer: 8 mM MOPS pH 7.0, 0.2 mM EDTA, 1 mM MnCl2
The label depends only on residual activity: condition met if it is at least 80%, condition not met if it is smaller.

Example entries begin here.
> print(dat)
                                   compound        label.value
1  COC(=O)[C@@]1(O)C[C@H]2O[C@]1(C)n1c3ccccc3c3c4c(c5c6ccccc6n2c5c31)C(=O)NC4  condition not met
2  C[S+]([O-])c1ccc(-c2nc(-c3ccc(F)cc3)c(-c3ccncc3)[nH]2)cc1 (stereo unspecified)      condition met
3  COc1cc2ncnc(Nc3ccc(OCc4ccccc4)cc3)c2cc1OC      condition met

API: above_or_equal(metric=residual activity, cutoff=80%) for item O=C1Nc2ccc3ncsc3c2/C1=C/c1c[nH]cn1
condition not met

----------
Molecular target: Casein kinase I isoform delta (Homo sapiens) (UniProt P48730)
Details: at 1 µM
Description: Millipore: Percentage of residual kinase activity of CSNK1D at 1uM relative to control. Control inhibitor: Jnk Inhibitor II at 100.0uM. Buffer: 8 mM MOPS pH 7.0, 0.2 mM EDTA
The label depends only on residual activity: Fulfilled if it is at least 80%, Not fulfilled if it is smaller.

Example entries begin here.
> print(dat)
                                test.smiles                             system.tested  label.value
1  CCn1cnc2c(Nc3cccc(Cl)c3)nc(N[C@@H]3CCCC[C@@H]3N)nc21  Casein kinase I isoform delta (Homo sapiens) (UniProt P48730)    Fulfilled
2          O=[N+]([O-])/C=C/c1ccc2c(c1)OCO2  Casein kinase I isoform delta (Homo sapiens) (UniProt P48730)    Fulfilled

API: above_or_equal(metric=residual activity, cutoff=80%) for item CC(C)(C)c1cc(C=C(C#N)C#N)cc(Br)c1O
Fulfilled
